test system: OVCAR-4 ovarian; assay: NCI-60 one-dose screen, 48 h; conditions: 10 µM unless noted
Compounds without any hit were thinned out: in the full panel of roughly 83,000, 20% have a hit. Active and inactive are the calls of the source. The calls were made as follows: active = growth percent below 10; inactive = the rest.
Outcome codes: YES for active, NO for inactive

# molecule, label
measured = [
    ("CCOC(=O)CC(C)=N", "NO"),
    ("Nc1c(C(=O)Nc2ccccc2)sc2nc3c(cc12)CN(CCc1ccccc1)CC3", "NO"),
    ("CCCNc1nc(SC)nc(-c2cccc(N)c2)c1C#N", "NO"),
    ("CC1(C)CC(=O)C(c2c(-c3ccccc3)[nH]c3[nH]c(=S)[nH]c(=O)c23)=C(O)C1", "NO"),
    ("COc1ccc(-c2c(C)noc2-c2ccc(O)cc2O)cc1", "NO"),
    ("CC#Cc1nc2ccccc2c(=O)[nH]1", "NO"),
    ("O=C(CN1CCOCC1)Nc1ccc(Cn2nnc3c2C(=O)c2nnn(Cc4ccc(NC(=O)CN5CCOCC5)cc4)c2C3=O)cc1", "YES"),
    ("CCCCCCCCCC(=O)Oc1ccc(/C(=C(/C)Cc2cccc(OC)c2)c2ccc(OCCN(C)C)cc2)cc1", "NO"),
    ("CC1=NNC(=O)C1C (configuration not stated)", "NO"),
    ("COc1cccc(NC(=O)c2sc3nc4c(cc3c2N)CN(Cc2ccccc2)CC4)c1", "NO"),
    ("COc1ccc(C(=O)c2sc3nc4c(cc3c2N)CCCC4)cc1OC", "NO"),
    ("O=C(O)c1c([N+](=O)[O-])cnc2ccccc12", "NO"),
    ("COCCOC(=O)C1=C(C)NC(=S)NC1c1ccc2c(c1)OCO2 (configuration not stated)", "NO"),
    ("NCCN1CCN(c2nccc(-c3ccc4ccccc4c3)n2)CC1", "NO"),
    ("Cc1nc2sc(C(=O)Nc3cccc4c3OCCO4)c(N)c2cc1C(C)O (configuration not stated)", "NO"),
    ("COc1cc(-c2c3c(nc4c2c(C)nn4-c2ccccc2)-c2ccccc2C(=O)C3=O)cc(OC)c1OC", "NO"),
    ("COc1ccc2[nH]c(=O)c(/C=C/C(=O)c3ccc(Nc4nccc(-c5ccc6ccccc6c5)n4)cc3)cc2c1", "NO"),
    ("Cc1ccc2c(NCCCN(C)C)c3c(C)nn(C)c3nc2c1", "NO"),
    ("COc1cccc(/C=C\\C(=O)c2ccccc2)c1", "NO"),
    ("CC/C=C\\C[C@H](F)C/C=C1/C(=O)C=C[C@@H]1C/C=C\\CCCC(=O)O", "NO"),
    ("COc1ccc(CN2C(=O)/C(=C\\c3cc(OC)c(OC)c(OC)c3)c3cc(OC)ccc32)cc1", "NO"),
    ("O=[N+]([O-])c1cccc(-c2nc3sccn3c2-c2ccnc(NCCNS(=O)(=O)c3ccc(C(F)(F)F)cc3)n2)c1", "NO"),
]

---

test system: ACHN renal; test: NCI-60 one-dose screen, 48 h (100 = growth as untreated, 0 = no growth, -100 = all killed); conditions: 10 µM unless noted
Compounds without any hit were thinned out: in the full panel of roughly 83,000, 20% have a hit.

# compound, system tested, growth, %
measured = [
    ("COc1ccc(S(=O)(=O)NCCCNc2cc(-c3c(-c4cccc(OC)c4)nc4sccn34)ccn2)cc1", "ACHN renal", 33.2),
    ("C=C1CC[C@@H]2[C@](C)(COC(C)=O)[C@H](OC(C)=O)CC[C@@]2(C)[C@@H]1CC(Nc1ccc(S(=O)(=O)Nc2nc(C)cc(C)n2)cc1)C1=CCOC1=O (some centres undefined)", "ACHN renal", 71.6),
    ("COc1cc(OC)c(/C=C/C(=O)c2c(OC)cc(OC)cc2OC)c(OC)c1", "ACHN renal", 35.9),
    ("O=S(=O)(Nc1ccc(F)c(Cl)c1)c1ccc(-c2cnc(C3CC3)o2)cc1", "ACHN renal", 44.5),
    ("OC(c1cc(-c2ccccc2)nc2ccc(Cl)cc12)C1CCCCN1 (centres undefined)", "ACHN renal", 22.1),
    ("CCCCCCCCCC(=O)Oc1ccc(/C(=C(/C)Cc2cccc(OC)c2)c2ccc(OCCN(C)C)cc2)cc1", "ACHN renal", 110),
    ("CC1=CC(=O)CC(C)(C)[C@@]1(O)/C=C/[C@@H](C)O", "ACHN renal", 109),
    ("C=C1CCC2C3(C)COC(c4cccc(Cl)c4)OC3CCC2(C)C1/C=C/C1=CCOC1=O (centres undefined)", "ACHN renal", 71.5),
    ("CC[C@]12C=CCN3CC[C@@]4(c5ccc(OC)cc5N(C)[C@H]4[C@@](O)(C(=O)OC)[C@@H]1OC(=O)CCC(=O)N[C@@H](Cc1c[nH]c4ccccc14)C(=O)OC)[C@@H]32", "ACHN renal", 93),
    ("Cc1cc(N/N=C/c2nc(-c3ccc(Cl)cc3)oc2C)c2cc(Br)ccc2n1", "ACHN renal", 75.8),
    ("COc1ccc(-c2cn3c(-c4ccc(OC)cc4)cnc3c(Oc3ccc4c(C)cc(=O)oc4c3)n2)cc1", "ACHN renal", 58.1),
    ("COc1ccc2nc3cc(Cl)ccc3c(N3CCN(c4ccnc(N5CCN(C)CC5)n4)CC3)c2c1", "ACHN renal", 36.9),
    ("Oc1cccc(Nc2nccc(-c3ccc4ccccc4c3)n2)c1", "ACHN renal", 37.6),
    ("Nc1nc(-c2ccc(F)cc2)cc(-c2cnn(-c3ccccc3)n2)n1", "ACHN renal", 100),
    ("O=C1c2c[n+](Cc3ccccc3)ccc2-c2nc3ccccc3c3ccnc1c23", "ACHN renal", -13),
    ("CCOC(=S)SCc1ccc(Cl)cc1", "ACHN renal", 98.1),
    ("O=C1CC(c2nc3ccccc3[nH]2)CN1C1CCCCC1 (centres undefined)", "ACHN renal", 106),
    ("C=C1CCC2C3(C)COC(c4ccc(OC)cc4Br)OC3CCC2(C)C1/C=C/C1=CCOC1=O (centres undefined)", "ACHN renal", 81.1),
    ("CCCCCCCCCCNC(=O)CCl", "ACHN renal", 78),
]
